system.tested: Metabotropic glutamate receptor 8 (Rattus norvegicus) (UniProt P70579)
Sequence (P70579 whole entry, looked up): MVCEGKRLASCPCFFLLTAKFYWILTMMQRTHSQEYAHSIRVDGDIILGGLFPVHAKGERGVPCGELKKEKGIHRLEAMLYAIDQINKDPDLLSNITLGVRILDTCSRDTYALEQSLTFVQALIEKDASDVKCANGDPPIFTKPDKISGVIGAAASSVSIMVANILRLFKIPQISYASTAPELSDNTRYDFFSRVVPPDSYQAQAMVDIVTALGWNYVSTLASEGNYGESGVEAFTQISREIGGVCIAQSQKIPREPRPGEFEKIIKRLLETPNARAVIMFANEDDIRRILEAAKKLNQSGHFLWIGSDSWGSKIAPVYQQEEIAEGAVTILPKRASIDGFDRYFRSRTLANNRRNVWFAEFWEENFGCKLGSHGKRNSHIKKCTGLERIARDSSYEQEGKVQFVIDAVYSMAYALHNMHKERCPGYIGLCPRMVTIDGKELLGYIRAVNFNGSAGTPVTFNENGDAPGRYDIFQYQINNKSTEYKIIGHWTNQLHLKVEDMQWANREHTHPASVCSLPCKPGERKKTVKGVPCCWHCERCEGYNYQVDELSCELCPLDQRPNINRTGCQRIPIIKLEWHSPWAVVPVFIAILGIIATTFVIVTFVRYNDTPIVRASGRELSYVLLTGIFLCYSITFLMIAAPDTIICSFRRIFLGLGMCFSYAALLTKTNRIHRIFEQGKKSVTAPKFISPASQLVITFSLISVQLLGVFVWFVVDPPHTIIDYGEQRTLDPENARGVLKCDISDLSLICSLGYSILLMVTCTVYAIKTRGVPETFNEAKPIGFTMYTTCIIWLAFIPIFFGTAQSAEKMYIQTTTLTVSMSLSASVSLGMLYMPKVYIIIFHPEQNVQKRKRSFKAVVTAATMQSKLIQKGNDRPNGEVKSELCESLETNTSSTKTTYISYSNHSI
assay.details: mGluR8 Gi/Go-coupled signaling modulation – cell-based, rat, thallium flux, HTS, primary screen (AID 488969)
condition.info: HEK293 rat mGluR8, GIRK thallium flux, FluoZin2; at 10 µM; stronger effect = higher value; submaximal glutamate (EC20) added with thallium
Whole data set: some 110,000 compounds, median “z-score” near -0.1, cut for the highest 2% near 2. Only a selection was taken, and the highest values are over-represented in it overall.
value.kind: z-score

Example results:
>>> data_value("CN1C(=O)c2ccccc2C(C(=O)NCC2CCCO2)C1c1c[nH]c2ccccc12 (stereo not drawn)")
-1.14
>>> data_value("CN(C)CCn1c(NC(=O)c2ccc(Cl)cc2)nc2ccccc21")
0.381

Task: Return z-score measured with Metabotropic glutamate receptor 8 (Rattus norvegicus) (UniProt P70579) given this molecule: NNC(=O)c1cnn(Cc2ccccc2)c1N
Output: 0.0742

Task: Also OCCN(CCO)CC(O)COCCC12CC3CC(CC(C3)C1)C2 (stereo not drawn) ?
Output: 0.239

---

system.tested: Metabotropic glutamate receptor 8 (Rattus norvegicus)
assay.details: mGluR8 Gi/Go-coupled signaling modulation – cell-based, rat, thallium flux, HTS, primary screen (AID 488969)
condition.info: HEK293 rat mGluR8, GIRK thallium flux, FluoZin2; at 10 µM; stronger effect = higher value; submaximal glutamate (EC20) added with thallium
In all, about 110,000 compounds were measured (“z-score”: median about -0.1, highest 2% from about 2 on). The full list was thinned out, with the highest values kept by preference.
z-score by entry:
Number only, no unit.

Previously resolved entries follow.
>>> data_value("CCc1cc2c(=O)c(Oc3ccccc3)c(C)oc2cc1O")
0.432
>>> data_value("Cc1ccc(OCC(=O)NC(=S)Nc2cccc(NC(=O)c3ccc(Cl)cc3Cl)c2)cc1")
0.148
>>> data_value("Cc1cccc(C(=O)NC(=S)NNC(=O)c2cccs2)c1")
5.42
>>> data_value("CCCNC(=O)C(=O)Nc1ccc(N(C)C)cc1")
-0.0526
>>> data_value("O=C(NNC(=O)c1cccs1)c1ccc(Br)o1")
-0.207

Task: I am curious: what z-score value has been reported for Cc1cccc(C(=O)NC(=S)NNC(=O)Cc2ccccc2)c1 ?
Output: 1.8

Task: Thanks! And O=C(NNC(=S)NC(=O)c1cccs1)c1ccc(NC(=O)c2ccccc2)cc1 ?
Output: -0.0903

Task: Further, for O=C(NC(=S)NNC(=O)c1cccs1)c1ccc(Br)o1 ?
Output: 4.37

Task: Do the same for O=C(COc1ccccc1)NNC(=S)NC(=O)c1ccc(Cl)cc1Cl please
Output: 5.19

Task: Would you kindly repeat that for CNc1nc(OCC(F)(F)F)nc(N2CCN(C34CC5CC(CC(C5)C3)C4)CC2)n1 ?
Output: 0.418

Task: Then what about the compound O=C(NC(=S)NNC(=O)c1cccs1)c1ccco1 ?
Output: 1.08

---

system.tested: Metabotropic glutamate receptor 8 (Rattus norvegicus) (UniProt P70579)
assay.details: mGluR8 Gi/Go-coupled signaling modulation – cell-based, rat, thallium flux, HTS, primary screen (AID 488969)
condition.info: HEK293 rat mGluR8, GIRK (G protein-gated inwardly rectifying potassium channel) thallium flux, FluoZin2; at 10 µM; stronger effect = higher value; submaximal glutamate (EC20) added with thallium
Over roughly 110,000 compounds, “z-score” has its median near -0.1; the highest 2% begin near 2. The sample holds the highest values, similar compounds and a random draw of the others, so the mix is not that of the screen.
value.kind: z-score

Here's what some known entries look like.
>>> data_value("O=C(CCC(=O)OCC(=O)c1ccc(-c2ccccc2)cc1)Nc1cccc2cccnc12")
-0.0975
>>> data_value("CCOC(=O)c1c(C=O)c(C)n(Cc2ccc(Cl)cc2)c1C")
0.0766
>>> data_value("COc1ccc(C2C(C(N)=O)=C(C)Nc3nc(-c4ccccc4)nn32)cc1OC (stereo not given)")
0.875

Task: What value of z-score has been recorded for this entry: COc1cccc(C2C(C(N)=O)=C(C)Nc3nc(-c4cccc(Cl)c4)nn32)c1 (stereo not given)
Output: -0.342

Task: Same thing, different compound: CC1=C(C(N)=O)C(c2cccnc2)n2nc(-c3cccc(Cl)c3)nc2N1 (stereo not given)
Output: 0.192
